Experiment: in vivo;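 note: drug level in mouse blood measured 6 h after oral dosing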
Conditions: mouse, po, 200 mg/kg
Kindly state log10(concentration at 6 h) for each of the entries shown.
Could you please treat all values as log10 of concentration at 6 h in µM?

>  <Compound>
COc1cc2ncnc(Nc3ccc(F)c(Cl)c3)c2cc1OCCCN(C)C

>  <log10(concentration at 6 h)>
1.53

$$$$
>  <Compound>
COc1cc2ncnc(Nc3ccc(F)c(Cl)c3)c2cc1OCCN(C)C

>  <log10(concentration at 6 h)>
1.72

$$$$
>  <Compound>
COc1cc2ncnc(Nc3ccc(F)c(Cl)c3)c2cc1OCC(O)CN (stereo not given)

>  <log10(concentration at 6 h)>
-1.00

$$$$
>  <Compound>
COc1cc2ncnc(Nc3ccc(F)c(Cl)c3)c2cc1OCCCN1CCCC1

>  <log10(concentration at 6 h)>
0.94

$$$$
>  <Compound>
COc1cc2ncnc(Nc3ccc(F)c(Cl)c3)c2cc1OC[C@@H](O)CN1CCOCC1

>  <log10(concentration at 6 h)>
1.36

$$$$

For each entry beneath this line, provide reported log10(concentration at 6 h).
1. COc1cc2ncnc(Nc3ccc(F)c(Cl)c3)c2cc1OCCn1ccnc1
2. COc1cc2ncnc(Nc3ccc(F)c(Cl)c3)c2cc1OCCNC(C)(C)C
3. CNCCOc1cc2c(Nc3ccc(F)c(Cl)c3)ncnc2cc1OC
4. COCCN(CCOC)CCOc1cc2c(Nc3ccc(F)c(Cl)c3)ncnc2cc1OC
5. COCCNCCOc1cc2c(Nc3ccc(F)c(Cl)c3)ncnc2cc1OC

Out:
1: 2.21; 2: -1.00; 3: 0.20; 4: 0.86; 5: 1.04

For each entry beneath this line, provide reported log10(concentration at 6 h).
1. COc1cc2ncnc(Nc3ccc(F)c(Cl)c3)c2cc1OCCNC(C)(CO)CO
2. COc1cc2ncnc(Nc3ccc(F)c(Cl)c3)c2cc1OCC(O)CN(CCO)CCO (stereo not given)
3. CCN(CC)CCCOc1cc2c(Nc3ccc(F)c(Cl)c3)ncnc2cc1OC

Out:
-1.00
-0.70
0.73

Go through the list and state log10(concentration at 6 h) for each entry.
1. COc1cc2ncnc(Nc3ccc(F)c(Cl)c3)c2cc1OCCN1CCCCC1
2. COc1cc2ncnc(Nc3ccc(F)c(Cl)c3)c2cc1OCC(O)Cn1ccnc1 (stereo not given)
3. COc1cc2ncnc(Nc3ccc(F)c(Cl)c3)c2cc1OC
4. COc1cc2ncnc(Nc3ccc(F)c(Cl)c3)c2cc1OCCN1CCOCC1
5. COc1cc2ncnc(Nc3ccc(F)c(Cl)c3)c2cc1OC[C@H](O)CN1CCOCC1
6. COc1cc2ncnc(Nc3ccc(F)c(Cl)c3)c2cc1OCCN1CCN(C)CC1
7. COc1cc2ncnc(Nc3ccc(F)c(Cl)c3)c2cc1OCCNC(C)C
8. COc1cc2ncnc(Nc3ccc(F)c(Cl)c3)c2cc1OCCNCCN(C)C

Out:
[1.20, -1.40, 1.20, 2.19, 1.18, 0.85, -0.40, 0.04]

For each entry beneath this line, provide reported log10(concentration at 6 h).
1. COc1cc2ncnc(Nc3ccc(F)c(Cl)c3)c2cc1OCCCN1CCCCC1
2. COc1cc2ncnc(Nc3ccc(F)c(Cl)c3)c2cc1OCCN1CCCC1
3. COc1cc2ncnc(Nc3ccc(F)c(Cl)c3)c2cc1OCCN(CCO)CCO
4. CCN(CC)CCOc1cc2c(Nc3ccc(F)c(Cl)c3)ncnc2cc1OC

Out:
[0.72, 0.91, 0.00, 0.45]

Where do these numbers come from? They come from ChEMBL document CHEMBL1134804.
